test system: Human immunodeficiency virus 1; experiment: Antiviral activity against HIV1 with reverse transcriptase M184V mutation in human phytohemagglutininin-activated PBMC assessed as inhibition of viral replication; type: functional, organism-based
This listing pairs molecules with measured EC50.

{"chemical.string": "Nc1ccn([C@H]2CO[C@@H](CO)S2)c(=O)n1", "EC50, µM": 1.9}
{"chemical.string": "Nc1ccn([C@@H]2CS[C@H](CO)O2)c(=O)n1", "EC50, µM": 68}
